# Lookup of reported Ki keyed by entry
tgt: UniProt P35348
experiment-summary: Ability to displace beta ([125I]-iodo-4-hydroxyphenyl)-ethylaminomethyl tetralone from human cloned Alpha-1a adrenergic receptor stably expressed in Chinese Hamster Ovary (CHO) cells
Type: cell-based

[
  {
    "molecule-smiles": "COc1ccc2c(c1)C(=O)N(CCCCN1CCC(n3c(=O)oc4ccccc43)CC1)S2(=O)=O",
    "Ki (pM)": 64
  },
  {
    "molecule-smiles": "Cc1ccc2c(c1)C(=O)N(CCCCN1CCC(n3c(=O)oc4ccccc43)CC1)S2(=O)=O",
    "Ki (pM)": 99
  }
]

====

tgt: Alpha-1D adrenergic receptor (Homo sapiens, UniProt P25100)
Sequence (P25100 whole entry): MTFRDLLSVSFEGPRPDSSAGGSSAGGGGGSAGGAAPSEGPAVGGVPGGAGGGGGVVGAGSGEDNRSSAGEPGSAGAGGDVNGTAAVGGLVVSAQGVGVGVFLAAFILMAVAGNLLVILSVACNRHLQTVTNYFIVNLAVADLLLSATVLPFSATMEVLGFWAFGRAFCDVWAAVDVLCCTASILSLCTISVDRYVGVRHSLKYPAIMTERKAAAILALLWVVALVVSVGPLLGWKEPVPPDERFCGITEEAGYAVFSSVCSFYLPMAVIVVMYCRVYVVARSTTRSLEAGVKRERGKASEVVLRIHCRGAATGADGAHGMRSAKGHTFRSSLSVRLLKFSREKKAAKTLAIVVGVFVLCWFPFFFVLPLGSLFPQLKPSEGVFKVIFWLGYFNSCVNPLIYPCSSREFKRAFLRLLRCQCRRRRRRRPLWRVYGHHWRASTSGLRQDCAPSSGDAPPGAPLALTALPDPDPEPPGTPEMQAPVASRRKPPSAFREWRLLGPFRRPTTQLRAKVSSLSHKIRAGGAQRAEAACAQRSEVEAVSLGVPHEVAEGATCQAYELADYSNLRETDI
experiment-summary: Ability to displace beta ([125I]-iodo-4-hydroxyphenyl)-ethylamino methyl tetralone from human cloned Alpha-1d adrenergic receptor stably expressed in COS-7 cells
Type: cell-based
assay-endpoint: Ki (nM)

[
  {
    "molecule-smiles": "CS(=O)(=O)c1ccc2c(c1)S(=O)(=O)N(CCCCN1CCC(n3c(=O)oc4ccccc43)CC1)C2=O",
    "numeric-result": 210
  }
]

====

tgt: Alpha-1D adrenergic receptor (Homo sapiens, UniProt P25100)
experiment-summary: Ability to displace beta ([125I]-iodo-4-hydroxyphenyl) ethylamino methyl tetralone from human cloned Alpha-1d adrenergic receptor stably expressed in HEK cells.
Assay type: cell-based, HEK293
pKi: −log10 of the molar value.
# Lookup of reported pKi keyed by entry

[
  {
    "molecule-smiles": "O=C1c2cc(Cl)ccc2S(=O)(=O)N1CCCCN1CCC(n2c(=O)oc3ccccc32)CC1",
    "pKi": 7.07
  },
  {
    "molecule-smiles": "O=C1c2ccc([N+](=O)[O-])cc2S(=O)(=O)N1CCCCN1CCC(n2c(=O)oc3ccccc32)CC1",
    "pKi": 7.12
  },
  {
    "molecule-smiles": "Cc1ccc2c(c1)C(=O)N(CCCCN1CCC(n3c(=O)oc4ccccc43)CC1)S2(=O)=O",
    "pKi": 7.14
  },
  {
    "molecule-smiles": "O=C1c2ccccc2S(=O)(=O)N1CCCCN1CCC(n2c(=O)oc3ccccc32)CC1",
    "pKi": 7.39
  },
  {
    "molecule-smiles": "COC(=O)c1ccc2c(c1)oc(=O)n2C1CCN(CCCCN2C(=O)c3ccccc3S2(=O)=O)CC1",
    "pKi": 5.46
  }
]

====

tgt: Alpha-1A adrenergic receptor (Homo sapiens, UniProt P35348)
Sequence (P35348 whole entry): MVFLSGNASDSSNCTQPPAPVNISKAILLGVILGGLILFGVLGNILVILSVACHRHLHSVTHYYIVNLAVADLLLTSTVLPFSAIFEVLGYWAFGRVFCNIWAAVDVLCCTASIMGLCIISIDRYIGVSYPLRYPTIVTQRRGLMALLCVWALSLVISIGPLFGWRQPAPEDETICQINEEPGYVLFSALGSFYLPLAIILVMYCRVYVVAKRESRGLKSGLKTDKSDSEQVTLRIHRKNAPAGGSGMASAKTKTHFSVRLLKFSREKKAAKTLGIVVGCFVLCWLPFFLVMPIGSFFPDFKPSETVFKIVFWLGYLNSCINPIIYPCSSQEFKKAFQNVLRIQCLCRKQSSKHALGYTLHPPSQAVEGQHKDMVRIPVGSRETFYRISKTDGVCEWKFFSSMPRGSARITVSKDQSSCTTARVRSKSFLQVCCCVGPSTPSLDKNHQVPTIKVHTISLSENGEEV
experiment-summary: Ability to displace beta ([125I]-iodo-4-hydroxyphenyl)-ethylamino methyl tetralone from human cloned Alpha-1a adrenergic receptor stably expressed in Chinese Hamster Ovary (CHO) cells
Assay type: cell-based
assay-endpoint: Ki (nM)

[
  {
    "molecule-smiles": "COC(=O)c1ccc2c(c1)oc(=O)n2C1CCN(CCCCN2C(=O)c3ccccc3S2(=O)=O)CC1",
    "unit-string": "nM",
    "numeric-result": 1030
  },
  {
    "molecule-smiles": "O=C1c2ccccc2S(=O)(=O)N1CCCCN1CCC(n2c(=O)oc3ccccc32)CC1",
    "unit-string": "nM",
    "numeric-result": 0.12
  },
  {
    "molecule-smiles": "O=C1c2ccccc2S(=O)(=O)N1CCCCN1CCC(n2c(=O)oc3cc(F)ccc32)CC1",
    "unit-string": "nM",
    "numeric-result": 0.084
  },
  {
    "molecule-smiles": "Cc1cc(C)c2oc(=O)n(C3CCN(CCCCN4C(=O)c5ccccc5S4(=O)=O)CC3)c2c1",
    "unit-string": "nM",
    "numeric-result": 20
  },
  {
    "molecule-smiles": "O=C1c2cc([N+](=O)[O-])ccc2S(=O)(=O)N1CCCCN1CCC(n2c(=O)oc3ccccc32)CC1",
    "unit-string": "nM",
    "numeric-result": 0.13
  }
]
